# systemUnderTest: T1, FUN DNA-binding domain (bZIP) (Lotus japonicus)
# T1 chain: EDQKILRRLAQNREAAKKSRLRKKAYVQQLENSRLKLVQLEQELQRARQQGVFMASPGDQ
# assayDetails: EMSA; same buffer, 37 C
# assayContext: chain copies: 2; label: 5' 6-FAM

{"binder": "NRT3.1 P2 (dsDNA) DNA 1: GGTTTTTATTTTTGACCTCAGAGGGGATCG DNA 2: CGATCCCCTCTGAGGTCAAAAATAAAAACC", "binding result": "binds"}
{"binder": "HO1 P1 (dsDNA) DNA 1: TGTAATAACTTGTGAGCGAAGCAGGGATCC DNA 2: GGATCCCTGCTTCGCTCACAAGTTATTACA", "binding result": "binds"}
{"binder": "NRT3.1 P3 (dsDNA) DNA 1: AGACCTATTTTCTGACTCAATGTAGAGGGT DNA 2: ACCCTCTACATTGAGTCAGAAAATAGGTCT", "binding result": "binds"}
{"binder": "HO1 P2 (dsDNA) DNA 1: TCGAGCCTGCCTTGAGCTTGTCTTCTCCAT DNA 2: ATGGAGAAGACAAGCTCAAGGCAGGCTCGA", "binding result": "binds"}
{"binder": "NAC094 P1 (dsDNA) DNA 1: AGGAGAGGTTTGTGAGCATCAGCAAAGTGT DNA 2: ACACTTTGCTGATGCTCACAAACCTCTCCT", "binding result": "binds"}
{"binder": "NRT2.1 P4 (dsDNA) DNA 1: AGATTTAAGTTGACGTATTAATGACAATGA DNA 2: TCATTGTCATTAATACGTCAACTTAAATCT", "binding result": "binds"}
{"binder": "NRT3.1 P1 (dsDNA) DNA 1: CGTTCATTAATATGACATCAGAATTTCTCT DNA 2: AGAGAAATTCTGATGTCATATTAATGAACG", "binding result": "binds"}

Data origin: patent US20240271152A1
